Measured pIC50, listed per entry.
test system: HEK293; assay: Cytotoxicity against HEK293 cells after 68 hrs by MTT assay; type: cell-based; settings: Homo sapiens, HEK293, 68 h
pIC50: −log10 of the molar value.

- COMPOUND: "COc1ccc(/C=C\\c2cc(OC)c(OC)c(OC)c2)cc1O [COMBRETASTATIN A4]"
  CENSORING SIGN: "="
  pIC50: 8.00
- COMPOUND: "CCCCC/C=C\\C/C=C\\CCCCCCCC(=O)Oc1ccc(/C=C/c2cc(OC)c(OC)c(OC)c2)cc1OC"
  CENSORING SIGN: "<"
  pIC50: 4.00
- COMPOUND: "CCCCCCCCCCCCCCCCCC(=O)Oc1ccc(/C=C\\c2cc(OC)c(OC)c(OC)c2)cc1OC"
  CENSORING SIGN: "="
  pIC50: 5.41
- COMPOUND: "CCCCCCCCCCCCCCCCCC(=O)Oc1cc(/C=C/c2cc(OC)c(OC)c(OC)c2)ccc1OC"
  CENSORING SIGN: "="
  pIC50: 5.54
- COMPOUND: "CCCCCCCC/C=C\\CCCCCCCC(=O)Oc1ccc(/C=C/c2cc(OC)c(OC)c(OC)c2)cc1OC"
  CENSORING SIGN: "<"
  pIC50: 4.00
- COMPOUND: "CCCCCCCCCCCCCCCCCC(=O)Oc1ccc(/C=C/c2cc(OC)c(OC)c(OC)c2)cc1OC"
  CENSORING SIGN: "<"
  pIC50: 4.00
- COMPOUND: "COc1cc2c(c(OC)c1OC)-c1ccc(OC)c(=O)cc1[C@@H](NC(C)=O)CC2 [COLCHICINE]"
  CENSORING SIGN: "="
  pIC50: 7.70

====

tested on: HEK293; experiment: Cytotoxicity against HEK293 cells after 68 hrs by MTT assay; format: cell-based; conditions: Homo sapiens, HEK293, 68 h
pIC50: −log10 of the molar value.
MEASUREMENT KIND: pIC50

- LINE NOTATION: "CC/C=C\\C/C=C\\C/C=C\\CCCCCCCC(=O)Oc1cc(/C=C/c2cc(OC)c(OC)c(OC)c2)ccc1OC"
  CENSORING SIGN: "="
  MEASURED VALUE: 5.62
- LINE NOTATION: "COc1ccc(/C=C/c2cc(OC)c(OC)c(OC)c2)cc1O"
  CENSORING SIGN: "="
  MEASURED VALUE: 6.70
- LINE NOTATION: "CCCCCCCCCCCCCCCCCC(=O)Oc1cc(/C=C\\c2cc(OC)c(OC)c(OC)c2)ccc1OC"
  CENSORING SIGN: "="
  MEASURED VALUE: 7.52
- LINE NOTATION: "CCCCC/C=C\\C/C=C\\CCCCCCCC(=O)Oc1cc(/C=C/c2cc(OC)c(OC)c(OC)c2)ccc1OC"
  CENSORING SIGN: "="
  MEASURED VALUE: 5.59
- LINE NOTATION: "CC/C=C\\C/C=C\\C/C=C\\CCCCCCCC(=O)Oc1ccc(/C=C/c2cc(OC)c(OC)c(OC)c2)cc1OC"
  CENSORING SIGN: "<"
  MEASURED VALUE: 4.00
- LINE NOTATION: "CCCCC/C=C\\C/C=C\\CCCCCCCC(=O)Oc1cc(/C=C\\c2cc(OC)c(OC)c(OC)c2)ccc1OC"
  CENSORING SIGN: "="
  MEASURED VALUE: 7.70
- LINE NOTATION: "CCCCCCCC/C=C\\CCCCCCCC(=O)Oc1cc(/C=C\\c2cc(OC)c(OC)c(OC)c2)ccc1OC"
  CENSORING SIGN: "="
  MEASURED VALUE: 7.52
- LINE NOTATION: "CC/C=C\\C/C=C\\C/C=C\\CCCCCCCC(=O)Oc1cc(/C=C\\c2cc(OC)c(OC)c(OC)c2)ccc1OC"
  CENSORING SIGN: "="
  MEASURED VALUE: 7.64
